B1: LINE1-full (parent)
chain: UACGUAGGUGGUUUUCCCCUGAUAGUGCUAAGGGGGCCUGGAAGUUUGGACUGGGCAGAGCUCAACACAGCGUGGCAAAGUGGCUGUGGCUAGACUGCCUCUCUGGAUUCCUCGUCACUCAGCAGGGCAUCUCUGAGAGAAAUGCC

variants of: B1; experiment: self-cleavage, relative activity (ratio to wild type); higher = more cleavage; in vitro, sequencing; the parent is a self-cleaving ribozyme
Outcome label depends on self-cleavage relative to 0.8: at/above gives Met, below gives Not met.

Tell me whether self-cleavage is at least 0.8 here: U109C G114U
Met

Kindly determine if self-cleavage recorded for U119C A138G is above or exactly 0.8.
Met

Is self-cleavage at least 0.8? Consider U104C A140U
Met

Would you say "U52A" shows self-cleavage at minimum 0.8?
Met

Identify whether the reported self-cleavage of the following variant is 0.8 or greater: U85C U100A
Not met

In plain terms: is recorded self-cleavage at least 0.8 for U73A A94U ?
Not met

Check the entry U39C U45C : does self-cleavage equal or exceed 0.8?
Met

Determine whether measured self-cleavage meets or exceeds 0.8 for U14A U39C
Met

Reported self-cleavage reaches at least 0.8 for A22C U81C ?
Met

Evaluate U23A U102A : self-cleavage at minimum 0.8?
Met

Please check the record A67G C120U and state if its self-cleavage is at or above 0.8.
Not met

In plain terms: is recorded self-cleavage at least 0.8 for U62A U102A ?
Not met

Decide: is the reported value of self-cleavage for C16U C131U equal to or greater than 0.8?
Met

Exam item: decide whether the reported self-cleavage for C66A A136G is at least 0.8.
Not met

Please check the record U5A U87A and state if its self-cleavage is at or above 0.8.
Not met

Item A24C A65U with self-cleavage of 0.8 or above?
Not met

# check: self-cleavage of G21A U119C is greater than or equal to 0.8
Met

Form field: self-cleavage at least 0.8? Entry: U45A U109C
Met

In plain terms: is recorded self-cleavage at least 0.8 for "U26G" ?
Met

Does the reported self-cleavage for A31C A78G fall at or above the 0.8 mark?
Met

For this variant, is measured self-cleavage 0.8 or higher? A2G G93A
Not met

Exam item: decide whether the reported self-cleavage for A24G U102A is at least 0.8.
Met

Test whether the variant C3U U13C records self-cleavage of 0.8 or higher.
Not met

Is self-cleavage at least 0.8? Consider G80U G144A
Met

Reported self-cleavage reaches at least 0.8 for U45C U85G ?
Not met

API: above_or_equal(metric=self-cleavage, cutoff=0.8) for item U119C G135A
Met

Can U5A A65U be said to have self-cleavage at or above 0.8?
Not met

Reported self-cleavage reaches at least 0.8 for G41A U143C ?
Met

Given the entry U26C U104C , answer whether its self-cleavage meets or surpasses 0.8.
Met

Textbook exercise: given the entry A69G G122A , state whether its self-cleavage is greater than or equal to 0.8.
Not met

Given A22C A30G , state whether its self-cleavage is at least 0.8.
Met

Hello, I need to know if A59U C128U has measured self-cleavage not below 0.8. Thanks!
Met

API: above_or_equal(metric=self-cleavage, cutoff=0.8) for item A6U U85C
Not met

Check the entry U14C C113A : does self-cleavage equal or exceed 0.8?
Met

I'd appreciate it if you could say whether A92U U108C has self-cleavage at least equal to 0.8.
Met

Check if self-cleavage >= 0.8 (inclusive). Item: U14C A142G
Met

Quick check: does C38U U52C have self-cleavage greater than or equal to 0.8?
Met

Form field: self-cleavage at least 0.8? Entry: U39C C128U
Met

Hi team, for G25C U115A , is the recorded self-cleavage at or above 0.8?
Met

Record U73G U134C ; criterion: self-cleavage no lower than 0.8. Met?
Met

Threshold query (self-cleavage >= 0.8) on G36A A79G
Met

Say whether U85A A107U shows self-cleavage of 0.8 or more.
Not met

Is reported self-cleavage greater than or equal to 0.8 here: A67G C84G
Not met

Given the entry A121G U132C , answer whether its self-cleavage meets or surpasses 0.8.
Met

For this variant, is measured self-cleavage 0.8 or higher? A92U G106U
Not met
